- METHOD SUMMARY: activity coefficient (dimensionless); of the first substance listed, at infinite dilution; xn = mol fraction of the nth substance listed
- ASSAY CONDITIONS: 298.15 K; Liquid; x1 = 0
QUANTITY NAME: activity coefficient

# COMPOUND, QUANTITY NAME, MEAS VALUE
rows = [
    ("CCCCC [pentane] + CCCCCCn1cc[n+](C)c1.F[P-](F)(F)(F)(F)F", "activity coefficient", 13.7),
    ("c1ccccc1 [benzene] + CCCCCCn1cc[n+](C)c1.F[P-](F)(F)(F)(F)F", "activity coefficient", 1.03),
    ("CCCCCCC [heptane] + CCCCCCn1cc[n+](C)c1.F[P-](F)(F)(F)(F)F", "activity coefficient", 30.6),
    ("C=CCCCCC [1-heptene] + CCCCCCn1cc[n+](C)c1.F[P-](F)(F)(F)(F)F", "activity coefficient", 15.3),
    ("C1CCCC1 [cyclopentane] + CCCCCCn1cc[n+](C)c1.F[P-](F)(F)(F)(F)F", "activity coefficient", 8.53),
    ("CCCCCCCC [octane] + CCCCCCn1cc[n+](C)c1.F[P-](F)(F)(F)(F)F", "activity coefficient", 44.7),
    ("C=CCCCC [hex-1-ene] + CCCCCCn1cc[n+](C)c1.F[P-](F)(F)(F)(F)F", "activity coefficient", 10.4),
    ("CCCCCC [hexane] + CCCCCCn1cc[n+](C)c1.F[P-](F)(F)(F)(F)F", "activity coefficient", 22.5),
    ("C=CCCCCCC [oct-1-ene] + CCCCCCn1cc[n+](C)c1.F[P-](F)(F)(F)(F)F", "activity coefficient", 21.9),
    ("C1CCCCC1 [cyclohexane] + CCCCCCn1cc[n+](C)c1.F[P-](F)(F)(F)(F)F", "activity coefficient", 12.7),
    ("CO [methanol] + CCCCCCn1cc[n+](C)c1.F[P-](F)(F)(F)(F)F", "activity coefficient", 1.94),
]
